The reported numbers originate from a melting point compilation (Tetko et al.; mined from patent text by program, amines drawn as free bases though some values may be those of a salt).

observation.type: melting point

Req: Can you share its melting point? I mean this compound: CCCCC(=O)c1c(C(C)(C)C)cc(C=[N+]([O-])C(C)(C)C)cc1C(C)(C)C
Resp: 196 to 205 °C

* * *

observation.type: melting point

A selection of reference data follows.
| compound | observation.type | value.observed |
| --- | --- | --- |
| OC1CSC(Oc2cncc(Cl)c2)C(O)C1O (stereo unspecified) | melting point | 184 °C |
| CC1(C)CCCC(N2CCN(C3CCC(C(C)(C)C)CC3)CC2)C1 (stereo unspecified) | melting point | 90 to 92 °C |
| Cn1ccnc1Sc1ccc2[nH]nc(Nc3nccs3)c2c1 | melting point | > 250 °C |
| COc1ccc2cccc(N3C(=O)CNCC3=O)c2c1 | melting point | 232 °C |
| O=C(N[C@H](Cc1ccccc1)C(=O)O)OCc1cc2cc(-c3ccccc3)ccc2o1 | melting point | 154 to 156 °C |
| CSc1ccc(N2CCCN(/C(C)=C(/C#N)C(=S)/N=C/N(C)C)CC2)cc1 | melting point | 133 to 136 °C |
| CC(C)c1noc(-c2ncn3c4cccc(Cl)c4c(=O)n(C)c23)n1 | melting point | 209 °C |
| COc1ccc2c3c(c(=O)oc2c1)CNCC3 | melting point | 171 to 180 °C |

Req: Report melting point for OC1CC=C(c2ccc(C(F)(F)F)cc2)CC1 (stereo unspecified) please.
Resp: 104 to 106 °C

Req: Could you tell me which melting point is on file for CC(=O)C(=NNc1cccc2ccccc12)Sc1ccc(C(C)C)cc1 ?
Resp: 130 to 133 °C

Req: # get_value(readout='melting point', item= O=CC(=Cc1ccc(Cl)cc1)C(C=O)=Cc1ccc(Cl)cc1 )
Resp: 172 to 173 °C

* * *

observation.type: melting point

| molecule | melting point |
| --- | --- |
| CC(C)CCN1CNC(=O)C12CCN(Cc1ccccc1)CC2 | 139 to 140 °C |
| CCCCCC1CC=C(c2ccc(Br)cc2)CC1 (stereo unspecified) | 67 to 68 °C |
| COc1ccc([N+](=O)[O-])c(Nc2ccc3cn[nH]c3c2)n1 | 261 to 264 °C |

Req: Dear colleague, I am looking for the recorded melting point of the following molecule: CCOC(=O)c1cc(=O)c2ccc(O)cc2o1
Resp: 221 to 223 °C

Req: Query (molecule): CCCCCCCCCCCCCCCCCCC(CO)CC1(C)OCCO1 (stereo unspecified) ; field requested: melting point
Resp: 34 to 35 °C

Req: Using the record for CCc1c(C(=O)c2cc(C)cc(C)c2)n(C/C=C\c2ccccc2)c(=O)[nH]c1=O , report its melting point.
Resp: 98 to 99 °C

Req: GET /values?readout=melting point&item= N#CNC(=N)CCCc1ccccc1Sc1ccccc1CCCC(=N)NC#N
Resp: 155 to 157 °C

Req: Report melting point for NNC1=NCCc2ccccc21 please.
Resp: 55 to 57 °C

Req: Please look up its melting point: CC(=O)c1ccc(Cc2c(Cl)cc(N3N=CCNC3=O)cc2Cl)cc1
Resp: 189 to 190 °C

Req: What value of melting point has been recorded for this entry: CC(Oc1ccc(F)cc1)C1CN(c2ccccc2)CCN1 (stereo unspecified)
Resp: 80 to 82 °C

Req: // query melting point value for entry CCOC(=O)C1(O)C(=O)N2CCOc3cc(Cl)cc1c32 (stereo unspecified)
Resp: 186 to 187 °C

* * *

observation.type: melting point

Examples with their reported melting point follow.
| compound | melting point |
| --- | --- |
| CC(C)(C)NS(=O)(=O)c1ccc(-c2cn(-c3cc(-c4ccc(C(F)(F)F)cc4)cc(C(F)(F)F)n3)cn2)s1 | > 250 °C |
| CC(C)(C)OC(=O)N(Cc1ccc(C2CCCCC2)cc1)c1nc(N2CCOCC2)c2ncn(CC(=O)O)c2n1 | 166 to 167 °C |
| CC(C)(C)c1cc(CCc2ccccc2NC(=O)NCC2CCCCC2)cc(C(C)(C)C)c1O | 208 to 210 °C |
| CCOc1ccc(C2=NN(C(CC)CCCCC(=O)O)C(=O)C3CCCCC23)cc1OCC (centres undefined) | 90 to 91 °C |
| CC(C)Cc1cc2nnc(-c3ccccc3F)n2nc1OCc1ncnn1C | 134 to 136 °C |
| O=S(=O)(c1cccc(F)c1)c1ccc2[nH]c3c(c2c1)CCNCC3 | 153 to 156 °C |
| NCC(=O)N[C@H]1CC[C@H](O)CC1 | 110 to 114 °C |
| COC(=O)[C@H](Cc1ccccc1)Oc1c(C)cc(-c2c3ccccc3c(Br)c3sc(C)c(C)c23)cc1C | 134 to 139 °C |

Let us move to another entry and its melting point.
Req: melting point for CN(c1cccc2cc(C(N)=O)[nH]c12)S(=O)(=O)c1cccs1 ?
Resp: 244 to 245 °C

* * *

Overview of recorded melting point for various compounds

| compound | observation.type | value.observed |
| --- | --- | --- |
| CCCCNc1nc2cc(C)nn2c2c1cnc1c2cnn1CC | melting point | 160 to 162 °C |
| Cc1cc(C)c(/C=C2\C(=O)N(CN3CCCC3)c3ccccc32)[nH]1 | melting point | 129 to 132 °C |
| C=CC(=O)OCCCCCCC[C@H]1CC[C@H](c2cccc(F)c2F)CC1 | melting point | 34 to 35.3 °C |
| CCOC(=O)c1n[nH]cc1-c1ccccc1 | melting point | 164 to 165 °C |
| CC(C)Cn1c(CN2C(=O)c3ccccc3C2=O)c(-c2ccc(F)cc2)c2cc(OCc3ccccc3)ccc2c1=O | melting point | 198 to 199 °C |

Req: Requested field: melting point. Item: CCOC(=O)c1ccc(O)nc1
Resp: 143 to 144 °C

* * *

melting point reference

Req: Recorded melting point for COc1cc(C)c(C=CC(C)=CC=CC(C)=CC(=O)OC2C(OC)OC(CO)C(O)C2O)c(C)c1C (stereo unspecified) , please?
Resp: 197 °C

Req: Can you look up the measured melting point of COc1cccc(CN2CC(=O)Nc3ncc(-c4ccc(O)cc4)nc32)c1 for me?
Resp: 282 to 283 °C

Req: // lookup melting point for CCOC(=O)C(=NOC(C)C)c1csc(NC(c2ccccc2)(c2ccccc2)c2ccccc2)n1
Resp: 182 °C

Req: Can you share its melting point? I mean this molecule: Cc1c(NC(=O)CC(C)(C)C)cc2c(c1C)OC(C)(C)C2Nc1ccccc1 (stereo unspecified)
Resp: 151 to 152 °C

* * *

Some compounds, each annotated with its measured melting point.

Check out these entries, answers already filled in.
| compound | observation.type | value.observed |
| --- | --- | --- |
| CCN(CCN(CC)c1ccc(N=O)c(C)c1)c1ccc(N=O)c(C)c1 | melting point | 157 °C |
| O=C1C(c2ccccc2)=C(c2ccccc2)C(=O)N1CCc1ccc(F)cc1 | melting point | 153 to 154 °C |
| Cc1[nH]c(-c2ccccc2)c(N)c1C(=O)Nc1ccccc1 | melting point | 271 to 273 °C |
| CC(CCC(=O)NCCS(=O)(=O)O)C1CCC2C3C(O)CC4CC(NC(=O)CNC(=O)OC(C)(C)C)CCC4(C)C3CC(O)C12C (centres undefined) | melting point | 150 to 155 °C |
| COC(=O)c1cc(C(=O)O)cc(C(=O)OC)c1C(=O)OC | melting point | 143 to 144 °C |
| COc1ccc(C(=O)Nc2nc(C(Cl)(Cl)Cl)ns2)cc1 | melting point | 172 °C |
| O=C(COCc1csc(-c2ccc(F)cc2)n1)c1ccccc1 | melting point | 104 to 106 °C |
| N#Cc1ccc(-c2ccc(Cl)c(OC3SCC(O)C(O)C3O)c2)cn1 (centres undefined) | melting point | 192 °C |

Req: Quick one: melting point for COc1c(-c2ccc3cc(NS(C)(=O)=O)ccc3c2)cc(-n2ccc(=O)[nH]c2=O)cc1C(C)(C)C(=O)O ?
Resp: > 300 °C

* * *

Catalogue of compounds with associated melting point

Known results for compounds:
| compound | observation.type | value.observed |
| --- | --- | --- |
| CC(C)(COc1ccccc1C1NC(C(=O)O)CS1)CO[N+](=O)[O-] (stereo not given) | melting point | 105 to 108 °C |
| CC(=O)OC1CSC(Oc2ccc(-c3ccncc3)cc2F)C(OC(C)=O)C1OC(C)=O (stereo not given) | melting point | 179 °C |
| COC(=O)c1ccc(-c2nc(-c3ccc(C)cc3)cs2)cc1 | melting point | 185 to 187 °C |
| Fc1ccc(-c2nc(=S)c3c(o2)CCCC3)cc1 | melting point | 148 to 149 °C |
| COC(=O)c1ccc(Cl)c2c1C=CCO2 | melting point | 49 to 50 °C |

Req: I have this compound here, CCOC(=O)c1c(C)nc(NCCCN(C)C)c2nnn(CC)c12 , and I need its recorded melting point.
Resp: 30 to 34 °C

Req: I would be grateful if you could share the reported melting point for Cc1nc(C)c(Cl)c(CNCc2ccc(O)cn2)n1 .
Resp: 137 to 138 °C
